test system: MDA-MB-436 (ATCC); assay: IC50 on cell monolayers (MTT assay); format: cell-based, human; conditions: pH 7.4; 6-hour incubation; read-out: IC50 of free cisplatin

| compound | unit.name | IC50 |
| --- | --- | --- |
| N.N.[Cl][Pt][Cl] [free cisplatin, cis-diamminedichloroplatinum (II)] | nM | 2460 |

###

system: MDA-MB-231 (LUNG1); experiment: IC50 on cell monolayers (MTT assay); format: cell-based, human; conditions: pH 7.4; 6-hour incubation; read-out: IC50 of free cisplatin
assay.metric: IC50 (µM)

| compound | assay.metric | readout.value |
| --- | --- | --- |
| N.N.[Cl][Pt][Cl] [free cisplatin, cis-diamminedichloroplatinum (II)] | IC50 | 40.2 |
